- experimental system: APOL1 (Homo sapiens)
- Sequence (O14791 1-398 S342G/I384M): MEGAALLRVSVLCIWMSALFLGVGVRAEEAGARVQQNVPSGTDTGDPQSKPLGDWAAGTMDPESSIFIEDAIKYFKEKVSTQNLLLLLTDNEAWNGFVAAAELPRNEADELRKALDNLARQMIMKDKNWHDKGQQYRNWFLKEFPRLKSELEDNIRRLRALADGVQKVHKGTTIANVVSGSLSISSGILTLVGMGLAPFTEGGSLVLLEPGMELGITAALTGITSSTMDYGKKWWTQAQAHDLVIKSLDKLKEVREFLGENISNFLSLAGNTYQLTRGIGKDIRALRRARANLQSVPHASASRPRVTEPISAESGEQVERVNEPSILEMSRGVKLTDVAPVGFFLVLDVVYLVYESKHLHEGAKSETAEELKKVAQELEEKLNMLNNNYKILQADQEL
- experimental details: MultiTox-Fluor Multiplex Cytotoxicity Assay in tet-inducible APOL1 T-REx-HEK293 cells (cell rescue, ratio of dead to live cells)
- assay context: tet-inducible transgenic APOL1 T-REx-HEK293 cell lines, 50 ng/mL tet, 24 hours; read-out: IP50 (i.e., IC50 for cell proliferation)
- Protocol: The MultiTox-Fluor Multiplex Cytotoxicity Assay is a single-reagent-addition, homogeneous, fluorescence assay that measures the number of live and dead cells simultaneously in culture wells. […] The MultiTox reagent was added to each well and placed back in the incubator for an additional 30 minutes. The plate was read on the EnVision plate reader. A ratio of dead to live cells was used to normalize, and data was imported, analyzed, and fit using Genedata Screener (Basel, Switzerland) software. […]
readout name: IC50

{"columns": ["molecule", "readout name", "meas value"],
 "data": [
  ["CCc1cc2c(s1)CCO[C@@]21CCN(Cc2cn(CC3COCCO3)nn2)[C@@H](C)C1 (stereo partly drawn)", "IC50", "< 100 nM"],
  ["Cc1cncc(CN2CC[C@]3(C[C@@H]2C)OCCc2c3sc(Cl)c2CO)c1", "IC50", "100 to 500 nM"],
  ["C[C@H]1C[C@@]2(CCN1Cc1cnn(CCS(C)(=O)=O)c1)OCCc1c2sc(C(F)(F)F)c1CO", "IC50", "< 100 nM"],
  ["CCc1cc2c(s1)CCOC21CCN(Cc2cn(CC(=O)NCC(C)O)nn2)CC1 (stereo not drawn)", "IC50", "500 to 1000 nM"],
  ["C[C@H]1C[C@@]2(CCN1CC(O)c1ccc(F)c(F)c1)OCCc1cc(CC(F)F)sc12 (stereo partly drawn)", "IC50", "100 to 500 nM"],
  ["CCc1cc2c(s1)CCO[C@@]21CCN(CC2CN(C(=O)CCO)C2)[C@@H](C)C1", "IC50", "100 to 500 nM"],
  ["C[C@H]1C[C@@]2(CCN1C[C@H](O)C(N)=O)OCCc1cc(CC(F)F)sc12", "IC50", "< 100 nM"],
  ["C[C@H]1C[C@@]2(CCN1Cc1cnn(CCS(C)(=O)=O)c1)OCC(N)c1cc(Cl)sc12 (stereo partly drawn)", "IC50", "< 100 nM"],
  ["CCc1cc2c(s1)CCO[C@@]21CCN(CC2CN(C(=O)c3ncc(C)[nH]3)C2)[C@@H](C)C1", "IC50", "< 100 nM"],
  ["CCc1cc2c(s1)CCO[C@@]21CCN(Cc2cn(CCS(C)(=O)=O)nn2)[C@@H](C)C1", "IC50", "< 100 nM"],
  ["C[C@H]1C[C@@]2(CCN1Cc1ccc(OCC(=O)N3CCOCC3)cc1)OC[C@H](O)c1cc(Cl)sc12", "IC50", "< 100 nM"],
  ["C[C@@H]1C[C@]2(CCN1Cc1cn(CC(O)C(C)(C)O)nn1)OCCc1cc(Cl)sc12 (stereo in doubt)", "IC50", "< 100 nM"],
  ["C[C@H]1C[C@@]2(CCN1CC(C)(C)O)OCCc1cc(CC(F)F)sc12", "IC50", "100 to 500 nM"],
  ["CCc1cc2c(s1)CCO[C@@]21CCN(C[C@H]2C[C@@H](NC(=O)C3(C(N)=O)CC3)C2)[C@@H](C)C1", "IC50", "100 to 500 nM"],
  ["CNC(=O)Cn1cc(CN2CC[C@]3(C[C@@H]2C)OCCc2cc(Cl)sc23)cn1", "IC50", "< 100 nM"],
  ["[2H]C([2H])([2H])OC1CO[C@@]2(CCN(Cc3cnn(CCS(C)(=O)=O)c3)[C@@H](C)C2)c2sc(Cl)cc21 (stereo partly drawn)", "IC50", "< 100 nM"],
  ["CCc1cc2c(s1)CCO[C@@]21CCN(Cc2cn(C3CN(S(=O)(=O)c4nccn4C)C3)nn2)[C@@H](C)C1", "IC50", "< 100 nM"],
  ["CCc1cc2c(s1)CCO[C@@]21CCN(Cc2ccc(N[C@@H](C)C(C)(C)O)nc2)[C@@H](C)C1", "IC50", "< 100 nM"],
  ["CCc1cc2c(s1)CCO[C@@]21CCN(C2CCCC2O)[C@@H](C)C1 (stereo partly drawn) [Compound 245]", "IC50", "100 to 500 nM"],
  ["C[C@H]1C[C@@]2(CCN1Cc1ncn3ccccc13)OCCc1cc(Cl)sc12", "IC50", "500 to 1000 nM"],
  ["CCc1cc2c(s1)CCOC21CCN(Cc2cn(CC(c3cccnc3)N3CCOCC3)nn2)C(C)C1 (stereo not drawn)", "IC50", "500 to 1000 nM"],
  ["C[C@H]1C[C@@]2(CCN1Cc1cnn(C)c1)OCC(O)c1cc(Cl)sc12 (single isomer, unassigned) [Compound 819]", "IC50", "< 100 nM"],
  ["C[C@H]1C[C@@]2(CCN1Cc1ccc3c(c1)n(C)c(=O)n3C)OCCc1cc(Cl)sc12", "IC50", "< 100 nM"],
  ["CCc1cc2c(s1)CCOC21CCN(Cc2cn(C(C)C(=O)NCC(C)O)nn2)CC1 (stereo not drawn)", "IC50", "500 to 1000 nM"],
  ["C[C@H]1C[C@@]2(CCN1Cc1cnn(C)c1)OCC(O)(c1ccccc1)c1cc(Cl)sc12 (stereo partly drawn) [Compound 850]", "IC50", "100 to 500 nM"],
  ["CCc1cc2c(s1)CCO[C@@]21CCN(Cc2cn(C3CN(C(=O)OC(C)(C)C)C3)nn2)[C@@H](C)C1", "IC50", "< 100 nM"],
  ["CCc1ncc(CN2CC[C@]3(C[C@@H]2C)OCCc2c3sc(Cl)c2CO)cn1", "IC50", "100 to 500 nM"],
  ["CCc1cc2c(s1)CCO[C@@]21CCN(C[C@H]2C[C@@H](NS(=O)(=O)c3ccc(C#N)cc3)C2)[C@@H](C)C1", "IC50", "< 100 nM"],
  ["CCc1cc2c(s1)CCOC21CCN(Cc2cnn(C)c2)C2(CCC2)C1 (stereo not drawn)", "IC50", "100 to 500 nM"],
  ["COc1ncc(CN2CC[C@]3(C[C@@H]2C)OCCc2c3sc(Cl)c2CO)cn1", "IC50", "< 100 nM"]
]}
